Would you kindly list inhibition for each of these compounds?
biological target: Beta-secretase 1 (Homo sapiens, UniProt P56817); assay: Inhibition of Beta-secretase 1 at 2 uM concentration
Sequence (P56817 whole entry): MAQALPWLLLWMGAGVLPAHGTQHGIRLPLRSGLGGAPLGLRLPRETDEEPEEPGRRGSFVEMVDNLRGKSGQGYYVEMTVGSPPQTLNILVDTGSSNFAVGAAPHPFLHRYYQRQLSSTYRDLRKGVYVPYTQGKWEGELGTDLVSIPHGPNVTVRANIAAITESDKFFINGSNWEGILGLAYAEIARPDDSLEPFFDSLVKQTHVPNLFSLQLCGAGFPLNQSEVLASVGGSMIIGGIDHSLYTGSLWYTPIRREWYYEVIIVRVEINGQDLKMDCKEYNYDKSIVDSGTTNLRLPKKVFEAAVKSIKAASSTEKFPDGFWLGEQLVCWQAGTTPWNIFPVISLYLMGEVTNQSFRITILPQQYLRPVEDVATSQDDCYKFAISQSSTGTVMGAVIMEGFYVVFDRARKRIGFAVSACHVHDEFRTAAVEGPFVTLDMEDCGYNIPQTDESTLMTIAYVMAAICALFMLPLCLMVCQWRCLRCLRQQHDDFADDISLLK
Where a SMILES comes first, the peptide text is derived from it.

Form field - read-out: inhibition; system: Beta-secretase 1 (Homo sapiens, UniProt P56817); submitted item: CC(C)C[C@H](NC(=O)[C@@H](NC(=O)[C@@H](N)CCC(=O)O)C(C)C)C(=O)N[C@@H](Cc1ccccc1)[C@@H](O)C(=O)N[C@@H](CC(=O)O)C(=O)N[C@@H](C)C(=O)O (HELM PEPTIDE1{E.V.L.[O=C([C@H](O)[C@H](Cc1ccccc1)N[*:1])[*:2]].D.A}$$$$V2.0)
46%

Param readout= inhibition; system= Beta-secretase 1 (Homo sapiens, UniProt P56817); entry= CC(C)C[C@H](NC(=O)CNC(=O)[C@@H](N)CCC(=O)O)C(=O)N[C@@H](Cc1ccccc1)C(O)C(=O)N[C@@H](CC(=O)O)C(=O)NC(C)C(=O)N[C@@H](CCC(=O)O)C(=O)N[C@@H](Cc1ccccc1)C(=O)O (single isomer, unassigned) ; returns value.
< 20%

Lab request: please report inhibition under test system Beta-secretase 1 (Homo sapiens, UniProt P56817) for CC(C)C[C@H](NC(=O)[C@@H](NC(=O)[C@@H](N)CCC(=O)O)C(C)C)C(=O)N[C@@H](Cc1ccccc1)[C@@H](O)C(=O)NCc1ccccc1
30%

Test system Beta-secretase 1 (Homo sapiens, UniProt P56817); read-out inhibition; what value for C[C@H](NC(=O)[C@H](CC(=O)O)NC(=O)[C@H](O)[C@@H](N)Cc1ccccc1)C(=O)N[C@@H](CCC(=O)O)C(=O)N[C@@H](Cc1ccccc1)C(=O)O (HELM PEPTIDE1{[N[C@@H](Cc1ccccc1)[C@@H](O)C(=O)[*:2]].D.A.E.F}$$$$V2.0) ?
< 20%

Fill in the recorded inhibition for this compound, with Beta-secretase 1 (Homo sapiens, UniProt P56817) as test system: CC(C)C[C@H](NC(=O)[C@@H](NC(=O)[C@@H](N)CC(=O)O)C(C)C)C(=O)N[C@@H](Cc1ccccc1)[C@@H](O)C(=O)N[C@@H](CC(=O)O)C(=O)N[C@@H](C)C(=O)N[C@@H](CCC(=O)O)C(=O)O (HELM PEPTIDE1{D.V.L.[O=C([C@H](O)[C@H](Cc1ccccc1)N[*:1])[*:2]].D.A.E}$$$$V2.0)
< 20%

What is its inhibition for Beta-secretase 1 (Homo sapiens, UniProt P56817)? Entry: CC(C)C[C@H](NC(=O)[C@@H](NC(=O)CCCC(=O)O)C(C)C)C(=O)N[C@@H](Cc1ccccc1)[C@@H](O)C(=O)N[C@@H](CC(=O)O)C(=O)N[C@@H](C)C(=O)N[C@@H](CCC(=O)O)C(=O)O (HELM PEPTIDE1{[O=C(O)CCCC(=O)[*:2]].V.L.[O=C([C@H](O)[C@H](Cc1ccccc1)N[*:1])[*:2]].D.A.E}$$$$V2.0)
< 20%
